Listed here: items and their measured pIC50.
- Test System: GBA2 (Homo sapiens)
- Sequence (Q9HCG7 1-927): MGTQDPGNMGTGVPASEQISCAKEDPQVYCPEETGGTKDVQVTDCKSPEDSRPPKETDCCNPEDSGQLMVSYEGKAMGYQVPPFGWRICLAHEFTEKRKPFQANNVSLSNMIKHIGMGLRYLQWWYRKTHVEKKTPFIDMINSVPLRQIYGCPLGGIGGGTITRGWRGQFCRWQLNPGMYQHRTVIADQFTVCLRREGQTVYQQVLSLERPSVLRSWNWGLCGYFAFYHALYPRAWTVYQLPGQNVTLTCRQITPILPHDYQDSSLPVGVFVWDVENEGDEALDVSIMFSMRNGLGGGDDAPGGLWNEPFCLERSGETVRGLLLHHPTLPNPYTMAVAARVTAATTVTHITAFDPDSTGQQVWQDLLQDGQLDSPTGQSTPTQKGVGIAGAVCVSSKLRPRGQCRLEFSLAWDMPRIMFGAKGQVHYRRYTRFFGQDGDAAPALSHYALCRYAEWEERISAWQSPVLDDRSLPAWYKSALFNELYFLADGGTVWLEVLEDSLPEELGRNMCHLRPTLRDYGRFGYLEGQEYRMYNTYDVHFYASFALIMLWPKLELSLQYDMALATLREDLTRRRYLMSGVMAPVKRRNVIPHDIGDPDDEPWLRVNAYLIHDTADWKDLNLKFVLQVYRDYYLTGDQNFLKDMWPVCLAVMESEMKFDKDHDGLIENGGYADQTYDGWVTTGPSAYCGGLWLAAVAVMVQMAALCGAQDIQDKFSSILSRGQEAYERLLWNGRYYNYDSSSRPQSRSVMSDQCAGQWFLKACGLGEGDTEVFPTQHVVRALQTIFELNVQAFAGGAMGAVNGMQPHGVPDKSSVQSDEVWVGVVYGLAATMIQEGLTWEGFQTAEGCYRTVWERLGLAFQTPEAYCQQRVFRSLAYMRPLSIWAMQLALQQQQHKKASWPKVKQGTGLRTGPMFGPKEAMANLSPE
- Test Description: Determination of IC50 values for inhibition of GBA2 in cell lysate
- Format: biochemical
- Parameters: host or cells: HEK293T (lentiviral transduction, puromycin selection); used as cellular homogenate
pIC50: −log10 of the molar value.

[Q] Output pIC50 of C[C@@H]1[C@@H](O)[C@H](O)[C@@H](O)CN1CCc1c(F)cccc1F
[A] > 7.00

Others:
[Q] Identify measured pIC50 associated with C[C@@H]1[C@@H](O)[C@H](O)[C@@H](O)CN1CCc1ccc(OC2CCOCC2)cc1
[A] > 7.00

[Q] Answer with reported pIC50 of C[C@@H]1[C@@H](O)[C@H](O)[C@@H](O)CN1CCc1cccs1
[A] 6.00 to 7.00

[Q] Return pIC50 (reported value) for this molecule: C[C@H]1[C@@H](O)[C@H](O)[C@@H](O)CN1CCc1ccccc1F
[A] 4.60 to 6.00

Attribution: patent US12612380B2
